Examples of molecules with documented Activity follow.
- protocol summary: Glutathione peroxidase-like activity at 10x(E -3) M concentration as NADP+/L/min
- Type: functional
Quick reminder: number only, in µM, skip the unit.

[
  {
    "molecule": "c1ccc2c(c1)[nH]c1c2ccc2[se]nnc21",
    "unit label": "µM",
    "Activity": 31
  },
  {
    "molecule": "c1ccc2c(c1)[nH]c1c2ccc2ccsc21",
    "unit label": "µM",
    "Activity": 20
  },
  {
    "molecule": "COc1ccc2[nH]c3c4ccsc4ccc3c2c1",
    "unit label": "µM",
    "Activity": 20
  },
  {
    "molecule": "CS(=O)(=O)n1c2c(c3ccccc31)CCc1[se]nnc1-2",
    "unit label": "µM",
    "Activity": 31
  },
  {
    "molecule": "CCOC(=O)c1cc2ccc3c(c4ccccc4n3C)c2o1",
    "unit label": "µM",
    "Activity": 15
  }
]

Ask | I have this molecule here, "CS(=O)(=O)n1c2ccccc2c2c3nn[se]c3ccc21" , and I need its recorded Activity.
Reply | 33

Ask | I have this molecule here, "CCOC(=O)c1c2[nH]c3ccc(OC)cc3c2cc2nc(C)sc12" , and I need its recorded Activity.
Reply | 58

Ask | I have this molecule here, O=c1c2ccccc2[se]n1-c1ccccc1 [EBSELEN] , and I need its recorded Activity.
Reply | 111

Ask | I have this molecule here, "COc1ccc2[nH]c3c(c2c1)-c1cccc(OC)c1C3=O" , and I need its recorded Activity.
Reply | 26

Ask | I have this molecule here, "c1ccc2c3c([nH]c2c1)-c1ccsc1SC3" , and I need its recorded Activity.
Reply | 71

Ask | I have this molecule here, "CCOC(=O)c1sc(SC)c2c1ccc1c3ccccc3[nH]c12" , and I need its recorded Activity.
Reply | 38

Ask | I have this molecule here, "CCOC(=O)c1sc(SC)c2c1ccc1c3cc(OC)ccc3[nH]c12" , and I need its recorded Activity.
Reply | 9

Ask | I have this molecule here, "Cn1cnc2c3[nH]c4ccccc4c3ccc21" , and I need its recorded Activity.
Reply | 20

Ask | I have this molecule here, "COc1ccc2[nH]c3ccc4nc(C)sc4c3c2c1" , and I need its recorded Activity.
Reply | 35
